System: HRV type 2
Assay: Inhibition of viral cytopathic effect (CPE), visual scoring or neutral red, HRV type 2 in KB cells
Format: cell-based, human rhinovirus
Settings: selectivity index = CC50 or MTC divided by EC50; HRV type 2, KB cells
Let's look at some compounds and their measured Activity on Rhinovirus Type 2 SI.

Study these solved cases before continuing.
CCON=Cc1ccc(OCCC2CCN(c3ccc(Cl)nn3)CC2)cc1	>400
Cc1cc(CCCOc2c(C)cc(C=NOCc3ccccc3)cc2C)on1	34
CCON=Cc1ccc(OCCC2CCN(c3ccc(Cl)nn3)CC2)c([N+](=O)[O-])c1	>33
C=CCON=Cc1ccc(OCCC2CCN(c3ccc(Cl)nn3)CC2)c(C)c1	>100
CCON=Cc1cc(C)c(OCCC2CCN(c3ccc(Cl)nn3)CC2)c(C)c1	>32
CON=Cc1ccc(OCCC2CCN(c3ccc(Cl)nn3)CC2)c(OC)c1	>25
CON=C(C)c1ccc(OCCC2CCN(c3ccc(C)nn3)CC2)cc1	>13
CCCON=Cc1ccc(OCCC2CCN(c3ccc(Cl)nn3)CC2)cc1	>250
CCON=Cc1ccc(OCCC2CCN(c3ccc(Cl)nn3)CC2)cc1O	>21
CC(C)ON=Cc1ccc(OCCC2CCN(c3ccc(Cl)nn3)CC2)cc1	50

Request the reported Activity on Rhinovirus Type 2 SI associated with CON=Cc1ccc(OCCC2CCN(c3ccc(Cl)nn3)CC2)cc1
>33

Lookup CON=Cc1cccc(OCCC2CCN(c3ccc(Cl)nn3)CC2)c1
>1000

Lookup CCO/N=C/c1ccc(OCCC2CCN(c3ccc(Cl)nn3)CC2)cc1
>1000

Lookup CCON=C(CC)c1ccc(OCCC2CCN(c3ccc(Cl)nn3)CC2)cc1
>1

Lookup CCON=Cc1ccc(OCCC2CCN(c3ccc(Cl)nn3)CC2)c(C)c1
>167

====

Test system: HRV type 2
Assay: Inhibition of viral cytopathic effect (CPE), visual scoring or neutral red, HRV type 2 in KB cells
Format: cell-based, human rhinovirus
Settings: HRV type 2 in KB cells, CPE inhibition
Readout type: Activity on Rhinovirus Type 2 EC50 (µg/mL)
Quick reminder: number only, in µg/mL, skip the unit.

Study these solved cases before continuing.
CCOCCOCCON=Cc1ccc(OCCC2CCN(c3ccc(Cl)nn3)CC2)cc1	3
CCON=Cc1ccc(OCC2CCCN(c3ccc(Cl)nn3)C2)cc1 (centres unmarked)	0.06
CCON=Cc1ccc(OCCC2CCN(c3ccc(Cl)nn3)CC2)c([N+](=O)[O-])c1	0.03
C=CCON=Cc1ccc(OCCC2CCN(c3ccc(Cl)nn3)CC2)c(C)c1	0.01

Request the reported Activity on Rhinovirus Type 2 EC50 associated with CCON=C(CC)c1ccc(OCCC2CCN(c3ccc(Cl)nn3)CC2)cc1
0.7

====

Let's look at some molecules and their measured Activity on Rhinovirus Type 2 EC50.
Test system: HRV type 2
Assay: Inhibition of viral cytopathic effect (CPE), visual scoring or neutral red, HRV type 2 in KB cells
Format: cell-based, human rhinovirus
Settings: HRV type 2 in KB cells, CPE inhibition
Quick reminder: number only, in µg/mL, skip the unit.

CCON=Cc1ccc(OCCC2CCN(c3ccc(OCC(F)(F)F)nn3)CC2)cc1	0.3

Request the reported Activity on Rhinovirus Type 2 EC50 associated with CCON=Cc1ccc(OCCCc2cc(C)no2)cc1
0.6

Lookup N#CCON=Cc1ccc(OCCC2CCN(c3ccc(Cl)nn3)CC2)cc1
0.046

Lookup CON=C(C)c1ccc(OCCC2CCN(c3ccc(Cl)nn3)CC2)c(OC)c1
0.019

Lookup CON=Cc1ccc(OCCC2CCN(c3ccc(C)nn3)CC2)cc1
0.15
